The entries below come with measured shrunken log2 fold change values attached.
test system: Escherichia coli TOP10; assay: shrunken log2 fold change of peptide-encoding DNA abundance (4.5 h post-induction vs induction); higher = less antimicrobial activity (less host growth inhibition); conditions: time post-induction: 4.5 h; library: site-saturation at positions 5, 18, 19, 20;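 note: peptides expressed intracellularly from a pBAD plasmid library in pooled LB shake-flask culture, induced with 0.3% L-arabinose, DNA abundance read by NGS, three biological replicates, DESeq2 with apeglm shrinkage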
// return a plain number; no unit text

Previously resolved entries follow.
- RRIRVRPPRLPRPRPRPGKVPRP: -0.272
- RRIRFRPPRLPRPRPRPMWIPRP: -0.106
- RRIRDRPPRLPRPRPRPPSTPRP: -0.0415
- RRIRIRPPRLPRPRPRPVCVPRP: -0.279
- RRIRFRPPRLPRPRPRPTRSPRP: 0.189
- RRIRSRPPRLPRPRPRPPDVPRP: 0.14
- RRIRTRPPRLPRPRPRPAPQPRP: 0.0544
- RRIRQRPPRLPRPRPRPQQEPRP: 0.0811

# lookup: shrunken log2 fold change of `RRIRHRPPRLPRPRPRPLDMPRP`
-0.0339

# lookup: shrunken log2 fold change of `RRIRHRPPRLPRPRPRPYFTPRP`
-0.679

# lookup: shrunken log2 fold change of `RRIRMRPPRLPRPRPRPRYQPRP`
-0.0321

# lookup: shrunken log2 fold change of `RRIRCRPPRLPRPRPRPQWDPRP`
-0.0642

# lookup: shrunken log2 fold change of `RRIRCRPPRLPRPRPRPVQLPRP`
0.0365

# lookup: shrunken log2 fold change of `RRIRTRPPRLPRPRPRPVDLPRP`
-0.0153

# lookup: shrunken log2 fold change of `RRIRQRPPRLPRPRPRPPKRPRP`
0.487

# lookup: shrunken log2 fold change of `RRIRNRPPRLPRPRPRPYIYPRP`
-0.514

# lookup: shrunken log2 fold change of `RRIRRRPPRLPRPRPRPDAPPRP`
0.888

# lookup: shrunken log2 fold change of `RRIRFRPPRLPRPRPRPYILPRP`
-1.31

# lookup: shrunken log2 fold change of `RRIRWRPPRLPRPRPRPWTGPRP`
-0.0518

# lookup: shrunken log2 fold change of `RRIRYRPPRLPRPRPRPYISPRP`
-0.00213

# lookup: shrunken log2 fold change of `RRIRHRPPRLPRPRPRPMIYPRP`
-0.105

# lookup: shrunken log2 fold change of `RRIRKRPPRLPRPRPRPAALPRP`
0.831

# lookup: shrunken log2 fold change of `RRIRRRPPRLPRPRPRPTGLPRP`
0.0398

# lookup: shrunken log2 fold change of `RRIRKRPPRLPRPRPRPEACPRP`
0.0762

# lookup: shrunken log2 fold change of `RRIRFRPPRLPRPRPRPHNTPRP`
-0.796

# lookup: shrunken log2 fold change of `RRIRNRPPRLPRPRPRPLYQPRP`
-0.357

# lookup: shrunken log2 fold change of `RRIRFRPPRLPRPRPRPNWTPRP`
-0.00237
